Recorded log10(TGI) by entry
# Tested on: RPMI-8226 leukemia
# test.name: NCI tumour cell line growth inhibition, 48 h
Recall that a logarithmic scale is used here: each number is log10 of TGI in µM.

Look over these answered cases.
{"compound": "O=[N+]([O-])c1ccc(O)c(/C=N/c2nc(-c3ccccc3)cs2)c1", "log10(TGI)": 1.49}
{"compound": "NCCCN1CCN(CCCNc2nc3ccccc3c3[nH]c4ccccc4c23)CC1", "log10(TGI)": -0.09}
{"compound": "COc1cc2c3c(n(CCCBr)c(=O)c2cc1OC)-c1ccc(F)cc1C3=O", "log10(TGI)": 1.58}
{"compound": "O=C1c2ccccc2-c2c1c1ccc([N+](=O)[O-])cc1c(=O)n2CCCNCCO", "log10(TGI)": -0.62}

Problem: Form field: log10(TGI) recorded for CC1=CCC[C@H]2[C@](C)(CC3=CC(=O)C(Sc4ccccc4)=CC3=O)[C@@H](C)CC[C@]12C with RPMI-8226 leukemia (enter value)
Result: 1.66

Problem: Request - read-out log10(TGI) | tested on RPMI-8226 leukemia | compound O=C(N/C(=C\c1ccc(/C=C(\NC(=O)c2ccccc2)c2nc3ccccc3s2)cc1)c1nc2ccccc2s1)c1ccccc1
Result: 1.57

Problem: Form: Entry = COc1ccc2c(c1)c(-c1ccc(-c3cn(C)c4ccc(OC)cc34)[nH]1)cn2C | System = RPMI-8226 leukemia | log10(TGI) = ____
Result: 0.53

Problem: Lab note: need log10(TGI) with RPMI-8226 leukemia for entry C=C1C(OC/C=C/COC2O[C@@H]3O[C@@]4(C)CC[C@H]5[C@H](C)CC[C@@H](C2=C)[C@@]35OO4)O[C@@H]2O[C@@]3(C)CC[C@H]4[C@H](C)CC[C@@H]1[C@@]24OO3 (stereo partly drawn) , please look it up.
Result: 1.03

---

# Test system: NCI-H226 lung
# test.name: NCI tumour cell line growth inhibition, 48 h; in the data active means GI50 below about 0.43 µM; inactive means the rest
Choose the fitting class; nothing outside active, inactive is accepted.

{"compound": "COC(=O)[C@H](C)NC(=O)[C@@H](OC)[C@@H]1Cc2cc3cc(OC4CC(OC5CC(O)C(O)C(C)O5)C(O)C(C)O4)c(C)c(O)c3c(O)c2C(=O)[C@H]1OC1CC(OC2CC(OC3CC(C)(O)C(O)C(C)O3)C(O)C(C)O2)C(O)C(C)O1 (some centres not stated)", "class.assignment": "active"}
{"compound": "COC(=O)[C@]12CC[C@@H](C)[C@H](C)[C@@H]1C1=CC[C@@H]3[C@@]4(C)C(C=O)=C[C@@](C)(COS(C)(=O)=O)C4[C@H](O)C[C@@]3(C)[C@]1(C)CC2 (some centres not stated)", "class.assignment": "inactive"}
{"compound": "NS(=O)(=O)c1ccc(-n2ncc3c(Nc4ccccc4)ncnc32)cc1", "class.assignment": "inactive"}
{"compound": "CCNNC(=O)[C@@H]1[C@H](c2cc(OC)c(OC)c(OC)c2)c2cc3c(cc2[C@H](O)[C@H]1CO)OCO3", "class.assignment": "active"}
{"compound": "CC(C)C[C@H](NC(=O)CCn1ccc2ncccc2c1=O)B(O)O", "class.assignment": "inactive"}
{"compound": "NC(=O)c1ccccc1NC(=O)c1ccccc1Cl", "class.assignment": "inactive"}

Problem: What did the test return for COc1cc(F)c(/C=C/c2cc(/C=C/c3cc(OC)c(OC)cc3F)n(-c3cc(F)cc(F)c3)n2)cc1OC ?
Result: inactive

---

# System: M14 melanoma
# test.name: NCI tumour cell line growth inhibition, 48 h
Entries and their TGI
Write the number in µM without appending the unit.

For orientation, consider the following solved cases.
{"compound": "CNC1=C(C(=O)OC)SC(c2ccccc2)(c2ccccc2)SC1", "TGI [µM]": 67.7}
{"compound": "COC([C@@H](OC(=O)c1ccccc1)[C@H](OC(=O)c1ccccc1)C(O)COC(=O)c1ccccc1)n1cc(C)c(=O)[nH]c1=O (stereo not given in full)", "TGI [µM]": 76}

Turning to the following compound.
Problem: Param readout= TGI; system= M14 melanoma; entry= COc1cc(F)c(/C=C/c2cc(/C=C/c3cc(OC)c(OC)cc3F)n(-c3cc(F)cc(F)c3)n2)cc1OC ; returns value.
Result: 3.53

---

# Test system: OVCAR-4 ovarian
# test.name: NCI tumour cell line growth inhibition, 48 h
Recorded TGI for the following compounds

{"compound": "CCOC(=O)C(=CN1CCNC1=S)C(=O)OCC", "readout.type": "TGI", "result": "> 100 µM"}

Problem: Quick check: TGI of Cc1ccc(S(=O)(=O)N/N=C2/CCC(C(C)(C)C)CC2Br)cc1 (stereo not given) ?
Result: 33.6 µM

Problem: What does the record list as TGI for O=C1CS(=O)(=O)C(c2cccc(Oc3ccccc3)c2)N1c1ccccc1 (stereo not given) ?
Result: > 100 µM

Problem: I am curious: what TGI value has been reported for COc1ccc(CNc2nc3cc(C(F)(F)F)ccc3nc2-c2ccccc2)cc1OC ?
Result: > 100 µM

Problem: Given COc1ccc(Cn2cc3c(c2-c2cc(OC)c(OC)c(OC)c2)CCc2cnoc2-3)cc1N , state its recorded TGI.
Result: > 100 µM

---

TGI overview
# Test system: HOP-92 NSCLC
# test.name: NCI tumour cell line growth inhibition, 48 h

{"molecule": "Cc1ccc2c(C(=O)c3c(C)n(CCN4CCOCC4)c4ccccc34)cccc2c1", "measured.target": "HOP-92 NSCLC", "TGI": "73.1 µM"}

Problem: Lab note: need TGI for COC1(c2cccs2)c2ccccc2C(OC)(c2cccs2)c2ccccc21 (stereo unspecified) on HOP-92 NSCLC, anyone have it?
Result: > 100 µM

Problem: For the record Cc1cc(N2CCCC2)c([N+](=O)[O-])cc1[N+](=O)[O-] , what value of TGI is listed for HOP-92 NSCLC?
Result: > 100 µM

Problem: Kindly state the measured TGI obtained for CN(CC(=O)O)Cc1oc(CO)cc(=O)c1O with HOP-92 NSCLC.
Result: > 100 µM

Problem: Param readout = TGI; param system = HOP-92 NSCLC; param query = CCOc1ccc(/C=C2\NC(=S)N(/C=C3\C(=O)Oc4ccccc4C3=O)C2=O)cc1 ; response: value
Result: 53.4 µM

---

# System: IGROV1 ovarian
# test.name: NCI tumour cell line growth inhibition, 48 h; in the data active = GI50 below about 0.43 µM; inactive = the rest
A correct response names exactly one class from active, inactive

Answered cases to consult:
{"molecule": "COC(=O)[C@H](C)NC(=O)[C@@H](OC)[C@@H]1Cc2cc3cc(OC4CC(OC5CC(O)C(O)C(C)O5)C(O)C(C)O4)c(C)c(O)c3c(O)c2C(=O)[C@H]1OC1CC(OC2CC(OC3CC(C)(O)C(O)C(C)O3)C(O)C(C)O2)C(O)C(C)O1 (some centres undefined)", "class.assignment": "active"}
{"molecule": "CSc1ccc(SC2c3ccc(C)cc3Oc3nc(N)c(C#N)c(N)c32)cc1 (centres undefined)", "class.assignment": "inactive"}
{"molecule": "O=c1oc2c3ccc4cnccc4c3[nH]c2c2ccccc12", "class.assignment": "inactive"}

Kindly review the next molecule as well.
Problem: Kindly provide the recorded test outcome for the following molecule: COc1cccc(N=N/C(=N\NC(=O)c2cc(Br)ccc2O)c2ccc(N(CCC#N)CCC#N)cc2OC)c1
Result: inactive

---

# Tested on: HS 578T breast
# test.name: NCI tumour cell line growth inhibition, 48 h; in the data active means GI50 below about 0.43 µM; inactive means the rest
Respond using exactly one of the listed classes: yes = active, no = inactive

Worked examples, 3 molecules total:
{"molecule": "NS(=O)(=O)c1ccc(-n2ncc3c(Nc4ccccc4)ncnc32)cc1", "measured.target": "HS 578T breast", "class.assignment": "no"}
{"molecule": "COc1cccc(N=N/C(=N\\NC(=O)c2cc(Br)ccc2O)c2ccc(N(CCC#N)CCC#N)cc2OC)c1", "measured.target": "HS 578T breast", "class.assignment": "no"}
{"molecule": "CC(=O)OC(C)c1cc2c(s1)C(=O)c1c(C(C)OC(C)=O)csc1C2=O (stereo unspecified)", "measured.target": "HS 578T breast", "class.assignment": "no"}

Problem: Short answer needed: outcome of this test for COc1c(Cl)ccc2c(-c3nc4cc(Cl)c(F)cc4s3)cc(=O)oc12 ?
Result: no

Problem: Test call, this molecule: Cc1cc(N(CCCNc2ccnc3cc(Cl)ccc23)Cc2ccc3c(c2)OCO3)nc(N2CCCCC2)n1
Result: no

Problem: Could you check what this test reported for COC(=O)[C@]12CC[C@@H](C)[C@H](C)[C@@H]1C1=CC[C@@H]3[C@@]4(C)C(C=O)=C[C@@](C)(COS(C)(=O)=O)C4[C@H](O)C[C@@]3(C)[C@]1(C)CC2 (stereo partly specified) ?
Result: no

Problem: So what was the verdict on O=C(CCSc1ccnc2c(C(F)(F)F)cccc12)N/N=C/c1cc(Cl)c(Cl)cc1Cl in this test?
Result: no

Problem: Status in this test for CC1(C)CC([P+](c2ccccc2)(c2ccccc2)c2ccccc2)=NN1 ?
Result: no

Problem: Per the records of this test, what outcome belongs to CCC1(NC(=O)c2cc(F)c(F)c(F)c2F)C(=O)NC(=O)N(C(C)C)C1=O (stereo unspecified) ?
Result: no

Problem: I would be grateful if you could indicate the recorded call for C=C(CNC(=O)c1ccccc1)c1ccc(C(=O)Nc2ccccc2N)cc1 .
Result: no

Problem: Call for entry COc1cccc(CCC(=O)c2cc3c(N)c(C(=O)Nc4cccc(Cl)c4C)sc3nc2C)c1 :
Result: yes
